melting point listing for selected molecules.

Please review the entries below; each comes with its answer.
>>> print(df.to_string())
                               molecule  measuredparameter         result
0               COc1ccc(NC(=S)C2CC2)cn1      melting point    79 to 83 °C
1  NC(=O)c1ccc(NC2CCN(Cc3ccccc3)CC2)cc1      melting point  192 to 193 °C

The reported melting point of the molecule `CC(C)N1CCC(CNc2ccc(Cl)cc2C(=O)Nc2ccccn2)CC1` was 118 to 120 °C

The reported melting point of the molecule O=C1CC2(CCCCC2Cc2ccccc2)S(=O)(=O)CCN1 (stereo not drawn) was 130 to 135 °C

The reported melting point of the molecule `CNC(=O)NS(=O)(=O)c1ccccc1CCC(F)(F)F` was 176 to 177 °C

The reported melting point of the molecule `Ic1cnc2c(c1)N(Cc1ccccc1)CCN2` was 147 to 148 °C

The reported melting point of the molecule CNC(=S)C1(c2ccc3ccccc3n2)CCCS1 (stereo not drawn) was 124 °C

The reported melting point of the molecule `N#Cc1cnccc1O` was 234 to 236 °C

The reported melting point of the molecule `O=C(O)Cc1cccc2c(C3CCCC3)nccc12` was 172 °C

The reported melting point of the molecule COc1ccc(C(C)N(C)CCCOc2ccc(S(=O)(=O)C3=C(C(C)C)N(C)CC3)cc2)cc1OC (stereo not drawn) was 100 to 102 °C

The reported melting point of the molecule `CCCCCCCCCCCCCCCCCCOc1cc(OCCCCCCc2cccc(O)c2O)cc(C(=O)O)c1` was 92 to 94 °C

The reported melting point of the molecule `O=C(O)Cc1ccc2cc(O)ccc2c1` was 208 to 210 °C

The reported melting point of the molecule `CC1(C)CC(=O)Nc2cc(-c3nc4ccccc4[nH]3)ccc21` was 314 to 316 °C

The reported melting point of the molecule `O=C(O)CC[C@H](NC(=O)Oc1ccc(N(CCCl)CCCl)cc1)C(=O)O` was 87 to 89 °C

The reported melting point of the molecule `Cc1ccc(CCc2nc3cc(-c4ccc(S(=O)(=O)N(C)C)cc4)cnc3[nH]2)nc1N` was 157 °C
